# subject-of-test: T1, EsCas13d, nuclease-dead (Eubacterium siraeum, UniProt B0MS50, R295A;H300A;R849A;H854A)
# T1 sequence: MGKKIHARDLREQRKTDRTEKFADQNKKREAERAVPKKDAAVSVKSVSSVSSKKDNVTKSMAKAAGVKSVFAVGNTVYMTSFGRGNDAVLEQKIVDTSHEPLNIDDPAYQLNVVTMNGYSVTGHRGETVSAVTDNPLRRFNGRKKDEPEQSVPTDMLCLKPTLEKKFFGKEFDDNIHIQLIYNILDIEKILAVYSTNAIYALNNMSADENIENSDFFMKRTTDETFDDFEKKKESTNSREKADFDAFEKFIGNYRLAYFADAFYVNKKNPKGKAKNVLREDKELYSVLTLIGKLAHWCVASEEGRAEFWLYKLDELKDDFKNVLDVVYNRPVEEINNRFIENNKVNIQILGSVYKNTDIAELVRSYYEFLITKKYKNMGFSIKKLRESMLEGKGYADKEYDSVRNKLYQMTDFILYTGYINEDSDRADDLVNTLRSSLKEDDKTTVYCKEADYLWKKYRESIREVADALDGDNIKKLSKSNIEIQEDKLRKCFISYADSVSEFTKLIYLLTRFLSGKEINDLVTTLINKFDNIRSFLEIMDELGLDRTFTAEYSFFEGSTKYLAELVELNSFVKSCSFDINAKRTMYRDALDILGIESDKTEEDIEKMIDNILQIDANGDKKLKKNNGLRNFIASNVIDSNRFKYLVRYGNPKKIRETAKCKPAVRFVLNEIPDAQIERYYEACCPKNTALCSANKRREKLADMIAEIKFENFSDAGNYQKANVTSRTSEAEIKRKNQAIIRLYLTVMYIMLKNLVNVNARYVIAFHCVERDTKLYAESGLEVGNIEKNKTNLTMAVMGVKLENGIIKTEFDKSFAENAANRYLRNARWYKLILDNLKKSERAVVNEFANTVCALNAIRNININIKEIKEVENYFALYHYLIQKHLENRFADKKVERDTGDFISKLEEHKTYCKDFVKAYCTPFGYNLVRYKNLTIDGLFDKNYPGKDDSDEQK
# assay: crRNA (strand 1, pre-loaded); Mg2+; 40 mM Tris-HCl pH 7.5, 150 mM NaCl, 6 mM MgCl2, 1 mM DTT, 0.1% Tween-20, 0.2 mg/ml BSA; 25 C; 10 min per concentration, then washed
# test-parameters: tags: His6-TwinStrep-SUMO cleaved; N-terminal SNAP kept (SNAP-Surface 488); label: 3' end held by stalled T7 RNA polymerase
measured-quantity: Kd (nM)
# value in nM; strip the unit string

Reference set (3 entries):
target 1 MT 5'PFS GGC 3'PFS CCU (mixed) RNA 1: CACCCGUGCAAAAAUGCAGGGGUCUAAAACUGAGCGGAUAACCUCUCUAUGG RNA 2: GGGAAUGGAUCCACAUCUACGAAUUCGGCCCAUAGAGAGGUUAUCCGCUCACCUAGAUCGGAAGAGCACACGU
15.9
target 1 insU 3' of 5,insA 3' of 2 (mixed) RNA 1: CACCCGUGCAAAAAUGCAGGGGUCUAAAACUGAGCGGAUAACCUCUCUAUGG RNA 2: GGGAAUGGAUCCACAUCUACGAAUUCGUACCAUAGAGAGGUUAUCCGUCUCAACCGAGAUCGGAAGAGCACACGU
11
target 2 MT 5'PFS GUG 3'PFS AAA (mixed) RNA 1: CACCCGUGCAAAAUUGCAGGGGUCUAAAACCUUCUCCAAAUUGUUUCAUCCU RNA 2: GGGAAUGGAUCCACAUCUACGAAUUCGUGAGGAUGAAACAAUUUGGAGAAGAAAAGAUCGGAAGAGCACACGU
9.7

Given item target 2 MT 5'PFS GCG 3'PFS UAA (mixed) RNA 1: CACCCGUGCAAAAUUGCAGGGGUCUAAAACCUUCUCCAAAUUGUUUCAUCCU RNA 2: GGGAAUGGAUCCACAUCUACGAAUUCGCGAGGAUGAAACAAUUUGGAGAAGUAAAGAUCGGAAGAGCACACGU , the value recorded as its Kd is 9.6
